Target: rabbit reticulocyte 15-LO (Oryctolagus cuniculus)
Sequence (P12530 1-663): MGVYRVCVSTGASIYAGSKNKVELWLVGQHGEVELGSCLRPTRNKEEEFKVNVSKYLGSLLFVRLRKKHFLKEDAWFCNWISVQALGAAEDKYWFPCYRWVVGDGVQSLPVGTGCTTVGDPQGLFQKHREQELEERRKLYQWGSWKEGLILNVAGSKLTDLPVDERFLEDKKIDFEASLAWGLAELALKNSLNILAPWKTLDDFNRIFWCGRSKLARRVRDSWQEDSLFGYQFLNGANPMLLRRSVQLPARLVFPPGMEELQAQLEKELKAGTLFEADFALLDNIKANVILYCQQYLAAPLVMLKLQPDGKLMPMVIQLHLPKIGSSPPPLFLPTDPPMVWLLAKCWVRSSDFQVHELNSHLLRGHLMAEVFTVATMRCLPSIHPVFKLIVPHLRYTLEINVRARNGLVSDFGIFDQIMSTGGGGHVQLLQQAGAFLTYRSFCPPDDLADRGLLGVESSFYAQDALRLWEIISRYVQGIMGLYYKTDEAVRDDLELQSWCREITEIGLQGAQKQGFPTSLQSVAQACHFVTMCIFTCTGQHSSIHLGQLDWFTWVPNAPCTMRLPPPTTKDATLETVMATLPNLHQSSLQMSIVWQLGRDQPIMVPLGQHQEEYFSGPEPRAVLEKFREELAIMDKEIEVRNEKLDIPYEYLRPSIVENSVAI
measureName: IC50 (nM)

* COc1ccc(-c2cc3ccccc3[nH]2)cc1NC(=S)Nc1cc(Cl)cc(Cl)c1 | 11

P: COc1ccc(-c2cc3cc(F)c(F)cc3[nH]2)cc1NS(C)(=O)=O
Q: COC(=O)c1ccc(CNc2cc(-c3cc4cc(F)c(F)cc4[nH]3)ccc2OC)cc1
Query :: Determine, for P and Q , which has the greater value of IC50. Your answer should be the label attached to the chosen record.
Result :: Q

###

Biological target: human 15-LO (Homo sapiens)
Sequence (P16050 1-662): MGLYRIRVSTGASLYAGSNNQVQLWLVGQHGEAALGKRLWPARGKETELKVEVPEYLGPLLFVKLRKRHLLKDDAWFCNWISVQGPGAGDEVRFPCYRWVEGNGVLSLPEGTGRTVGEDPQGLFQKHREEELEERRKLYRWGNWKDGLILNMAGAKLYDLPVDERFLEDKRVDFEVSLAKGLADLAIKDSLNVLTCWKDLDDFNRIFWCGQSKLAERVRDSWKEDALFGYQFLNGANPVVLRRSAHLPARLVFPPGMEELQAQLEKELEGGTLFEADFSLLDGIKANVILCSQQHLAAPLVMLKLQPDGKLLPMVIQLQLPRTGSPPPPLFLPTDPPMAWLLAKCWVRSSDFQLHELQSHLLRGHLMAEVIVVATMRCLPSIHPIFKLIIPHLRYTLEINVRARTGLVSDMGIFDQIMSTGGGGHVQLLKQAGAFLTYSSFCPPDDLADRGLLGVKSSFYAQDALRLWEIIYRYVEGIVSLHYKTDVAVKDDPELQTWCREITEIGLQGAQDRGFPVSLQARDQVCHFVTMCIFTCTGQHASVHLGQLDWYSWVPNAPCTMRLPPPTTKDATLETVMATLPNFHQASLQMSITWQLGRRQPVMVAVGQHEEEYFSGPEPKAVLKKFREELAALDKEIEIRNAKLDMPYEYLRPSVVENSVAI
pIC50: −log10 of the molar value.
measureName: pIC50

1: COc1ccc(-c2cc3cc(Cl)c(Cl)cc3[nH]2)cc1Nc1cccc(C(F)(F)F)c1
2: COC(=O)c1ccc(CNc2cc(-c3cc4cc(F)c(F)cc4[nH]3)ccc2OC)cc1
3: CNc1cc(-c2cc3ccccc3[nH]2)ccc1OC
4: COc1ccc(-c2cc3cc(F)c(F)cc3[nH]2)cc1NC(=O)Nc1cc(Cl)cc(Cl)c1
5: COc1ccc(-c2cc3cc(F)c(F)cc3[nH]2)cc1NS(=O)(=O)c1cccc(N)c1
Query :: Sort the entries above by pIC50, smallest first. Sort the labels as requested; that list is your answer.
Result :: 4, 2, 3, 1, 5

###

Biological target: human 15-LO (Homo sapiens, UniProt P16050)
Test: 15-LO inhibition, human enzyme
Type: biochemical
Details: at 10 micromolar; linoleic acid as substrate
measureName: inhibition at 10 µM (%)

// below: answered compounds
• COc1ccc(-c2cc3cc(F)c(F)cc3[nH]2)cc1NCc1ccc(O)c([N+](=O)[O-])c1 [Example 49] = 99
• COc1ccc(-c2cc3cc(F)c(F)cc3[nH]2)cc1NCc1ccc([N+](=O)[O-])c(O)c1 [Example 48] = 98
• CCCCCCCCCCCCS(=O)(=O)Nc1cc(-c2nc3cc(Cl)c(Cl)cc3[nH]2)ccc1OC [Example 21] = 65

A: COc1ccc(-c2nc3cc(Cl)c(Cl)cc3n2C(=O)OCc2ccccc2)cc1NS(=O)(=O)c1cccs1 [Example 10]
B: COc1ccc(-c2cc3cc(F)c(F)cc3[nH]2)cc1NC(=S)N[C@@H](COC(C)(C)C)C(=O)OC(C)(C)C [Example 36]
Query :: Would you kindly point out which of A and B has the smaller inhibition at 10 µM figure? Write down the label of the entry you select.
Result :: B

###

Molecular target: human 15-LO (Homo sapiens, UniProt P16050)
Assay: 15-LO inhibition, human enzyme
Assay type: biochemical
Conditions: linoleic acid as substrate
pIC50: −log10 of the molar value.
measureName: pIC50

- COc1ccc(-c2cc3ccccc3[nH]2)cc1NC(=S)N[C@H](C)c1ccccc1 [Example 27]: 5.75

P: COc1ccc(-c2cc3ccccc3[nH]2)cc1NCc1cccc([N+](=O)[O-])c1 [Example 42]
Q: COc1ccc(-c2cc3cc(F)c(F)cc3[nH]2)cc1NCc1cccc([N+](=O)[O-])c1 [Example 46]
Query :: Lab notebook, comparison: P versus Q , higher pIC50 goes to which? Return value: the label identifying the chosen record.
Result :: P
(P: 6.06, Q: 5.52)
